I'd be grateful if you could share measured IC50 for these entries.
Test system: human umbilical vein endothelial cells (HUVEC)
Type: cell-based
Details: 72 h
Description: Briefly, human umbilical vein endothelial cells (HUVEC) were cultured in EGM-2 medium (Clonetics Corp., San Diego, Calif.), harvested and plated onto a 96-well culture plate. After 24 hours of quiescence, the cells were co-cultured with various peptide-based constricts in the presence of growth factors for 72 hours to test their activity. Cell proliferation was quantitated by tritiated thymidine incorporation into DNA and was expressed in counts per minute (cpm). […]
Where a SMILES comes first, the peptide text is derived from it. [ ]: non-standard residue; d: D form. d1Nal = N[C@H](Cc1cccc2ccccc12)C(=O)O
Quick reminder: number only, in µg/mL, skip the unit.

The reported IC50 of the compound CC[C@@H](C)[C@@H](NC(=O)[C@@H](CCCCN)NC(=O)[C@H](NC(=O)CNC(=O)[C@@H](CCCCN)NC(=O)[C@@H](Cc1cccc2ccccc12)NC(=O)[C@@H](CCCCN)NC(=O)[C@@H](C)NC(=O)[C@@H](CCC(N)=O)NC(=O)[C@@H](Cc1cccc2ccccc12)NC(=O)[C@@H](CCCNC(=N)N)NC(=O)[C@@H](Cc1ccccc1)NC(=O)[C@@H](CC(C)C)NC(=O)[C@H](N)CCCCN)[C@H](C)CC)C(N)=O [XMP.656] (H-[dK][dL][dF][dR][d1Nal][dQ][dA][dK][d1Nal][dK]G[dI][dK][dI]-NH2; N-terminus assumed) was 2.6

Noted for CC(C)C[C@@H](NC(=O)[C@H](N)CCCCN)C(=O)N[C@H](Cc1ccccc1)C(=O)N[C@H](CCCCN)C(=O)N[C@H](Cc1cccc2ccccc12)C(=O)N[C@H](CCC(N)=O)C(=O)N[C@H](C)C(=O)N[C@H](CCCCN)C(=O)N[C@H](Cc1cccc2ccccc12)C(=O)N[C@H](CCCCN)C(=O)NCC(N)=O [XMP.679, k-l-f-k-(naph-a)-q-a-k-(naph-a)-k-g] (H-[dK][dL][dF][dK][d1Nal][dQ][dA][dK][d1Nal][dK]G-NH2; N-terminus assumed) : its IC50 reads 6.3

The compound listed as CC(C)C[C@@H](NC(=O)[C@H](N)CCCCN)C(=O)N[C@H](Cc1ccccc1)C(=O)N[C@H](CCCNC(=N)N)C(=O)N[C@H](Cc1cccc2ccccc12)C(=O)N[C@H](CCC(N)=O)C(=O)N[C@H](C)C(=O)N[C@H](CCCCN)C(=O)N[C@H](Cc1cccc2ccccc12)C(=O)N[C@H](CCCCN)C(=O)NCC(N)=O [XMP.627, k-l-f-r-(naph-a)-q-a-k-(naph-a)-k-g] (H-[dK][dL][dF][dR][d1Nal][dQ][dA][dK][d1Nal][dK]G-NH2; N-terminus assumed) has a reported IC50 of 5.8
